- System: Escherichia coli
- EXPERIMENT_NOTES: Spectrum of activity: E. coli growth inhibition
- Assay type: cell-based
- RECORDED_CONDITIONS: Escherichia coli; LB medium, overnight; read-out: Antibacterial activity (MIC50) E. coli
Listing of recorded MIC50 by entry.

Solved entries:
MOLECULE	MIC50
NCc1cccc(N2CCCCC2)n1	> 500 µM
Nc1ccc2oc3c(c2c1)CCCC3	> 500 µM
Cc1n[nH]c(C)c1Oc1ccc(Cl)cc1	> 500 µM
O=c1cc(C(F)(F)F)c2ccc(O)cc2o1	432 µM
CSc1cc(-c2ccc(F)cc2)n[nH]1	344 µM
Cc1cc(C(=O)O)c(C)n1Cc1cccs1	> 500 µM

Provide one value: measured MIC50 of Cc1cc2cc(N)ccc2[nH]1
> 500 µM

The measurements presented in this section are drawn from paper PMC5826148.
